Cited source: ChEMBL document CHEMBL5724796

assay-system: Transcription intermediary factor 1-alpha (Homo sapiens)
condition-notes: Compound concentration 20.0 uM
Residues, ends and D or L forms follow the SMILES beside them.
Outcome: MET for ΔTm of at least -0.5 °C; NOT MET for anything lower.

molecule=Cn1nc2c(=O)n(CC3(O)CCN(C(=O)C[C@H](c4ccccc4)C(F)(F)F)CC3)cnc2c1-c1ccc(CN)cc1 class_name=MET
molecule=Cc1[nH]c2c(N3CCO[C@H](CO)C3)c(C#N)c(C(F)(F)F)nc2c1Cl class_name="NOT MET"
molecule="OC1CN=C2c3ccn([C@@H]4O[C@H]([C@H](O)c5ccc(Cl)cc5)[C@@H](O)[C@H]4O)c3N=CN21 (stereo partly drawn)" class_name="NOT MET"
molecule=COc1ccc(-n2c(SCCCN3C(=O)c4cccc5cccc(c45)C3=O)nnc2-c2ccncc2)cc1 class_name=MET
molecule="CC[C@H](C)[C@H](NC(=O)[C@H](CCC(=O)O)NC(=O)[C@@H](NC(C)=O)C(C)C)C(=O)N[C@H](C=O)CC(=O)O (Ac-VEID-aldehyde)" class_name=MET
molecule=CC(=Cc1cc(C)ccc1C=C(C)C(=O)NC(=N)N)C(=O)N=C(N)N class_name="NOT MET"
molecule="COc1cc(Oc2ccnc3cc(OC)c(OC)cc23)ccc1NC(=O)NC(C)c1nccs1 (stereo not drawn)" class_name=MET
